All values here come from the EternaBench riboswitch data.

Test system: MS2 coat protein
Assay: apparent Kd, MS2 coat protein; higher = weaker binding; RNA-MaP array; FMN 200 µM where present
Settings: designed as: OFF switch for flavin mononucleotide; no ligand
property.name: apparent Kd (nM)

{"columns": ["sequence.string", "system", "property.name", "scale.unit", "observed.value"],
 "data": [
  ["UCGGCGCGAGGAUAUGCGGUUCCUCCCUCGGGCCGGAGCGUACAUGAGGAUCACCCAUGUAGAAGGCGCGCCGC", "MS2 coat protein", "apparent Kd", "nM", 13.9],
  ["AAGGAGUGAGGAUAUACAUGAGGAUCACCCAUGUUGAUGGAAACGUCAGAGAAAGAAGGUAGAAGGCACAAGAA", "MS2 coat protein", "apparent Kd", "nM", 56.7],
  ["GUUAAGGUAGGAUAUACGAUAAUAUAGGGUAGAAUUAUAACACAUGAGGAUCACCCAUGUAGAAGGACCAAUUG", "MS2 coat protein", "apparent Kd", "nM", 31.2],
  ["GAGGAUAGAGGAUAUGCAUAGAUACGGAUUCGUGUAGUACUACAUGAGGAUCACCCAUGUAGAAGGCUGUCCUG", "MS2 coat protein", "apparent Kd", "nM", 14.3]
]}
